Consider the following molecules; for each one, report its logD.
method: physchem
experimentalParameters: octanol/water
Description: Lipophilicity, log D of the compound
Give the figure by itself; no unit, no explanation.

Looking for the measured logD of c1ccc(Cn2cc3c(n2)CCNCC3)cc1 , can you help? 0.1

Same question, O=c1c2c([nH]n1Cc1ccccc1)CCNCC2 this time -0.5

Same question, COc1ccccc1Cc1cc2c(nn1)CCNCC2 this time 0.1

Same question, Clc1ccc(Cc2cc3c(nn2)CCNCC3)cc1 this time 0.8

Same question, c1ccc(Cc2nnc3n2CCNCC3)cc1 this time -0.3

Same question, Fc1ccc(Cc2cc3c(nn2)CCNCC3)cc1 this time 0.2

Same question, O=c1[nH]c2c(nc1Cc1ccccc1)CCNCC2 this time -0.1

###

Consider the following molecules; for each one, report its pKi.
Target sequence: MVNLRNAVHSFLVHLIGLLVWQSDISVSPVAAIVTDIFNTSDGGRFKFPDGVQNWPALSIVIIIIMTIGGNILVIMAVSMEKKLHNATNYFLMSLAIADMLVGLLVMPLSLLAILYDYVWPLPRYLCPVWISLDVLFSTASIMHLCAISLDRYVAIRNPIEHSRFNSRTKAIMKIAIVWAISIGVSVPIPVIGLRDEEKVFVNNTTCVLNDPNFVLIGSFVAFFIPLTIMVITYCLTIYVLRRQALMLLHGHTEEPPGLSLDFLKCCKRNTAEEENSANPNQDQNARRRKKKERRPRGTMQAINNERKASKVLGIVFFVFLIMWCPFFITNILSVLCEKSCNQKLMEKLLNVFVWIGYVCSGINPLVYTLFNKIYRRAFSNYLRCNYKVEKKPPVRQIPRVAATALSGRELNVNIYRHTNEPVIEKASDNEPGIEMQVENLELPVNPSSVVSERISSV
As a rule, pKi stands for the negative log10 of the concentration, concentration in M.

Looking for the measured pKi of COc1ccccc1Cc1cc2c(nn1)CCNCC2 , can you help? 6.26

Same question, FC(F)(F)c1cccc(Cc2cc3c(nn2)CCNCC3)c1 this time 6.60

Same question, CC(c1ccccc1)c1cc2c(nn1)CCNCC2 (stereo in doubt; 15g) this time 6.70

Same question, Cc1c(Cc2ccccc2)nnc2c1CCNCC2 this time 6.28

Same question, Fc1ccc(Cc2cc3c(nn2)CCNCC3)cc1 this time 6.35

Same question, O=c1[nH]c2c(nc1Cc1ccccc1)CCNCC2 this time 6.96

Same question, O=c1cc2c(nn1Cc1ccccc1)CCNCC2 this time 8.00

###

experimentalParameters: human, microsomes
Description: Intrinsic clearance in human liver microsomes
readoutName: CLH

Looking for the measured CLH of O=c1[nH]n(Cc2ccccc2)c2c1CCNCC2 , can you help? < 7000 µL/min/mg

Same question, c1ccc(Cn2cc3c(n2)CCNCC3)cc1 this time < 7000 µL/min/mg

Same question, O=c1cc2c(nn1Cc1ccccc1)CCNCC2 this time < 7000 µL/min/mg

Same question, O=c1[nH]c2c(nc1Cc1ccccc1)CCNCC2 this time < 8000 µL/min/mg

Same question, c1ccc(Cc2nnc3n2CCNCC3)cc1 this time < 8000 µL/min/mg

Same question, c1ccc(Cc2ncc3c(n2)CCNCC3)cc1 this time < 8000 µL/min/mg

###

method: in vitro
experimentalParameters: human, liver microsomes
Description: Intrinsic clearance in human liver microsomes
Consider the following compounds; for each one, report its microsomal CLint.

Looking for the measured microsomal CLint of c1ccc(Cc2cc3c(nn2)CCNCC3)cc1 , can you help? < 7 µL/min/mg

Same question, COc1ccccc1Cc1cc2c(nn1)CCNCC2 this time 9 µL/min/mg

Same question, Clc1ccccc1Cc1cc2c(nn1)CCNCC2 this time < 7 µL/min/mg

Same question, FC(F)(F)c1cccc(Cc2cc3c(nn2)CCNCC3)c1 this time < 7 µL/min/mg

Same question, Cc1c(Cc2ccccc2)nnc2c1CCNCC2 this time < 8 µL/min/mg

Same question, CC(c1ccccc1)c1cc2c(nn1)CCNCC2 (stereo in doubt; 15g) this time < 8 µL/min/mg

Same question, Clc1ccc(Cc2cc3c(nn2)CCNCC3)cc1 this time < 7 µL/min/mg

Same question, Fc1ccc(Cc2cc3c(nn2)CCNCC3)cc1 this time < 7 µL/min/mg
